Source listed as the supplement of paper PMC9170038.

Test system: K4 kissing-loop RNA reporter;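 further: bound reporter read as fluorescence of individual clusters on recovered sequencing chips by microscopy, with normalized cluster intensities fitted with a binding model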
Measurement description: apparent KD of K4 kissing-loop reporter; higher = weaker reporter binding
Test settings: Eterna round: R107; input ligand: theophylline 20 uM
Reported metric: apparent KD of K4 kissing-loop reporter (nM)
Give the value in nM but do not write nM after it.

# Chain, System name, Unit abbrev, apparent KD of K4 kissing-loop reporter
records = [
    ("GGGAGUAGUGCGGCCGCCACUGAGAAAGAAGAAGAAUAUAGUGAUGUUAUAUAGGAAGGGAAGAAUAGGACCGGGCAUUAGAUUU [SSTRyptB.Z]", "K4 kissing-loop RNA reporter", "nM", 275),
    ("AAUAUAGUGAUGUUAUAUAAGAAGGAGUUACGAGGACCGGUACGGCCGCCACUCGAAACGAGUGAGGAUUUGGGAGAUUGGGUUC [SSTryptA.L]", "K4 kissing-loop RNA reporter", "nM", 302),
    ("AUUUAGACGAGUGAUGUUCGUGUUAAUACAGAGGAUAUGCGUGAUUGCAGAAGGCUGUAUUUAUAUAUGUUAUGUGGUUUUAAAA [whbob_Ex_FMNA__2th187]", "K4 kissing-loop RNA reporter", "nM", 99.7),
    ("GCCUAGCAGGGAAGGAGCGCCAUAUAAUUAAAAGGUAAUUAAUGAGUGAUGUUCAAAUAAUGGCAGGUAGGUCGCCCUGCUAGGC [KL-SSArg B10]", "K4 kissing-loop RNA reporter", "nM", 354),
    ("UUUAAAUAUAGUGAUGUUAUAUAACAAUGACGAGGACCGGUACGGCCGCCACUCGAGAGAGAUAAUGGUCAUGCAAAUGUAUGUC [#15 K4 Tryptophan A Same State]", "K4 kissing-loop RNA reporter", "nM", 746),
    ("AACCGUGUGGCGGCCGCCACUAGUCUCCAGUGAUGUUGGAGAGACCACGUAAGUGGUCUCCGACAUAGGACCGGGCCAUAUGGAA [Same State - Tryptophan B (Freestyle 25)]", "K4 kissing-loop RNA reporter", "nM", 531),
    ("GUUACGCAUGGAAGGAGCGCGAUAAUAUUAAGUGAGUGAUGUUCACAAAGAAAAUAAAUAACGCAGGUAGGUCGCCAUGUGUAAC [Ex Arginine B K4 4]", "K4 kissing-loop RNA reporter", "nM", 97.8),
    ("AAGCCAAAGAUUGCUGCGGGUUCCAGAGAUACCAGCCGUAUUGAAGGCCCUUGGCAGCUCGAGUGAUGUUCGAGCCGUCUCUGGC [Lexerati]", "K4 kissing-loop RNA reporter", "nM", 122),
]

Param readout = apparent KD of K4 kissing-loop reporter; param system = K4 kissing-loop RNA reporter; param query = AAGUGAUGUUGUAGUGAUGUUGUGAUGUUGCAGGAUAUAUAGUGAUGUAGAAGGGUAUGUACAGAUUUUUUUUUUGAGUGAUGAU [ffdcmullin] ; response: value 48.1

Now this one: UCCUAGGCUCGAAAGAGCCUAGGUAAGACUCAGGAUAUCUGGAAACAGAGAAGGGAGCUACUAGUGAUGUUAGGAAUUCCCUAAG 119

Another sequence: UGAUACCAGACGGCCGCCACUCCUGCAGUCAAAGACUGCAAGGAAAUAUUCGUCCAGUGAUGUUGGAGGACCGGGUCUGGUAUCU [TrypBX 9 #SwitchBubble #Palindromic #StaticStem] 670

What would you report for AAGUGAUGUUGUAGUGAUGUUGUGAUGUUGCAGGAUAUAUAGUGAUGUAGAAGGGUAAGUACUGAUUUUUUUUGUGAGUGAUGUU [bbgvzrmullin] ? 54.1

Also need AGCGAGUGAUGUUCGCUGAUCAUGUGAAGUUAGGAUAUAUACUUGCAUAGAAGGAACUAUUACAUGACAUUAGAGGCAGUAGUUC [FMN A SS t7b] , thanks. 171

Consider next the sequence AAAACUAUCAGAAGGAGCGUGGAAUAUUCAUCUGUAUUUAAUACGAGUGAUGUUCGUAAUUCACAGGUAGGUCGCUGAUCAAUAA [whbob_Ex_Arginine_B_2th154] in the same way. 305

Moving on to AUUUUCAAUUUAUUAUAUAACUUUUCAGAAGGAGCGUGGAAGUUCACAGGUAGGUCGCUGAAUAUAGGACUAGUGAUGUUAGUUA [JR_Nu_SSArginiA_Sub023] 268
